Reference source: patent US8895526B2

Fold depletion in Mef for assorted molecules
Tested on: immortalized murine embryonic fibroblasts (Mef)
Test: Pooled negative selection RNAi screening (deep sequencing)
Assay type: cell-based
Conditions: deep sequencing reads, on dox compared to initial representation
A bare number is not enough; add the unit after it.

{"molecule": "Cdc42ep1.317: shRNA, SEQ ID NO: 103 (nucleic acid) TGCTGTTGACAGTGAGCGCCTAGCAGTTGTAAGCAATCAATAGTGAAGCCACAGATGTATTGATTGCTTACAACTGCTAGTTGCCTACTGCCTCGGA", "Fold depletion in Mef": "1.47 Fold"}
{"molecule": "Plcb2.3742: shRNA, SEQ ID NO: 167 (nucleic acid) TGCTGTTGACAGTGAGCGCAGGGACCTTAATACTCAGATATAGTGAAGCCACAGATGTATATCTGAGTATTAAGGTCCCTTTGCCTACTGCCTCGGA", "Fold depletion in Mef": "2.25 Fold"}
{"molecule": "Rpa3.561: shRNA, SEQ ID NO: 176 (also SEQ ID NO: 61) (nucleic acid) TGCTGTTGACAGTGAGCGCAAAAGTGATACTTCAATATATTAGTGAAGCCACAGATGTAATATATTGAAGTATCACTTTTATGCCTACTGCCTCGGA", "Fold depletion in Mef": "10.63 Fold"}
{"molecule": "Slc6a13.1196: shRNA, SEQ ID NO: 182 (nucleic acid) TGCTGTTGACAGTGAGCGACTGGGACTAGATAGCCAGTTTTAGTGAAGCCACAGATGTAAAACTGGCTATCTAGTCCCAGGTGCCTACTGCCTCGGA", "Fold depletion in Mef": "1.52 Fold"}
{"molecule": "Kit.2021: neutral control shRNA, SEQ ID NO: 195 (nucleic acid) TGCTGTTGACAGTGAGCGACACCCTGGTCATTACAGAATATAGTGAAGCCACAGATGTATATTCTGTAATGACCAGGGTGGTGCCTACTGCCTCGGA", "Fold depletion in Mef": "1.61 Fold"}
{"molecule": "Ptgs2.1082: neutral control shRNA, SEQ ID NO: 209 (nucleic acid) TGCTGTTGACAGTGAGCGCCAAGATAGTGATCGAAGACTATAGTGAAGCCACAGATGTATAGTCTTCGATCACTATCTTGATGCCTACTGCCTCGGA", "Fold depletion in Mef": "0.51 Fold"}
{"molecule": "AU018778.350: shRNA, SEQ ID NO: 94 (nucleic acid) TGCTGTTGACAGTGAGCGCCTGAAGATTGCCTGTACCTAATAGTGAAGCCACAGATGTATTAGGTACAGGCAATCTTCAGATGCCTACTGCCTCGGA", "Fold depletion in Mef": "1.18 Fold"}
{"molecule": "Smpd2.592: shRNA, SEQ ID NO: 183 (nucleic acid) TGCTGTTGACAGTGAGCGACAGCATGTCTACAGTCTGAATTAGTGAAGCCACAGATGTAATTCAGACTGTAGACATGCTGGTGCCTACTGCCTCGGA", "Fold depletion in Mef": "2.89 Fold"}

# molecule Tex14.3976: shRNA, SEQ ID NO: 185 (nucleic acid) TGCTGTTGACAGTGAGCGCCAGGAGCTACTTGATGAAATTTAGTGAAGCCACAGATGTAAATTTCATCAAGTAGCTCCTGATGCCTACTGCCTCGGA ; its Fold depletion in Mef = 1.90 Fold

The measured Fold depletion in Mef associated with Centd3.3993: shRNA, SEQ ID NO: 107 (nucleic acid) TGCTGTTGACAGTGAGCGCCTGGACCACAAGCATCCTTAATAGTGAAGCCACAGATGTATTAAGGATGCTTGTGGTCCAGTTGCCTACTGCCTCGGA reads 1.77 Fold

Fold depletion in Mef recorded for this molecule, Ptgs2.2058: neutral control shRNA, SEQ ID NO: 210 (nucleic acid) TGCTGTTGACAGTGAGCGCCCGGTGTTTGTCCTTTAAATATAGTGAAGCCACAGATGTATATTTAAAGGACAAACACCGGATGCCTACTGCCTCGGA , is 1.27 Fold

Fold depletion in Mef recorded for this molecule, Ntrk3.167: shRNA, SEQ ID NO: 156 (nucleic acid) TGCTGTTGACAGTGAGCGCCTGCAGCAAGACTGAGATCAATAGTGAAGCCACAGATGTATTGATCTCAGTCTTGCTGCAGATGCCTACTGCCTCGGA , is 1.76 Fold

So for Myc.1891: shRNA, SEQ ID NO: 147 (nucleic acid) TGCTGTTGACAGTGAGCGCACGACGAGAACAGTTGAAACATAGTGAAGCCACAGATGTATGTTTCAACTGTTCTCGTCGTTTGCCTACTGCCTCGGA , the logged Fold depletion in Mef turned out to be 4.62 Fold

Per the records, this molecule ( Ptpn18.247: shRNA, SEQ ID NO: 170 (nucleic acid) TGCTGTTGACAGTGAGCGCCACGAACAAGAACCGCTACAATAGTGAAGCCACAGATGTATTGTAGCGGTTCTTGTTCGTGTTGCCTACTGCCTCGGA ) has Fold depletion in Mef equal to 0.21 Fold

The value of Fold depletion in Mef measured for the molecule Pitpnm1.561: shRNA, SEQ ID NO: 165 (nucleic acid) TGCTGTTGACAGTGAGCGCCAGGATGCTTATCAAGGAGTATAGTGAAGCCACAGATGTATACTCCTTGATAAGCATCCTGATGCCTACTGCCTCGGA turned out to be 0.27 Fold

In plain terms, Kcnh7.2642: shRNA, SEQ ID NO: 134 (nucleic acid) TGCTGTTGACAGTGAGCGCATGGTTCATCTTTATGCCAAATAGTGAAGCCACAGATGTATTTGGCATAAAGATGAACCATTTGCCTACTGCCTCGGA has a documented Fold depletion in Mef of 0.92 Fold

Mn1.5760: neutral control shRNA, SEQ ID NO: 207 (nucleic acid) TGCTGTTGACAGTGAGCGCTTGGTTTAGCAGGAAGAATAATAGTGAAGCCACAGATGTATTATTCTTCCTGCTAAACCAAATGCCTACTGCCTCGGA yielded Fold depletion in Mef of 0.91 Fold
